Where these numbers come from: paper PMC10726347

# targetEntity: UniProt:Q8WWL2
# Sequence (Q8WWL2 18-207): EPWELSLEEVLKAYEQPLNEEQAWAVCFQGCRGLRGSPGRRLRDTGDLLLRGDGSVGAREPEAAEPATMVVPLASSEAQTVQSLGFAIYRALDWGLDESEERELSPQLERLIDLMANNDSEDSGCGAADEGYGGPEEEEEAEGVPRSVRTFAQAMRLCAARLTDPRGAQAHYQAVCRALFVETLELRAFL
# assayComment: Differential scanning fluorimetry (DSF) thermal shift, KIND2
# condition: read-out: KIND2 ΔTm
Reported ΔTm at 1000 µM values for the following compounds.

Study these solved cases before continuing.
>>> df
                                compound  result
0  Clc1ccc2c(NCCCN3CCOCC3)ccnc2c1 [F669]   -1 °C
1      Clc1ccc2c(N3CCNCC3)ccnc2c1 [F671]   -2 °C
2             Nc1ccnc2cc(Cl)ccc12 [F668]   -1 °C

// moving on: another record for ΔTm at 1000 µM
// ΔTm at 1000 µM value for OCCCNc1ccnc2cc(Cl)ccc12 [F410] : -0.5 °C

----------
Reported ΔTm at 1000 µM values for the following compounds.
# targetEntity: KIND1 (Homo sapiens, UniProt Q08AE8)
# Construct: His6 (N, cleaved yes); made in house; host or cells: E. coli BL21 (DE3)
# Sequence (Q08AE8 36-236): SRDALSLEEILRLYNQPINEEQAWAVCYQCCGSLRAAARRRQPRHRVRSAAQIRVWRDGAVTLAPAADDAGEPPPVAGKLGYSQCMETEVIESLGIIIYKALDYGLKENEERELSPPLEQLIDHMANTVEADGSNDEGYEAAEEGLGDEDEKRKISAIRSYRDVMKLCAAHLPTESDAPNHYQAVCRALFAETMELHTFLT
# assayComment: Differential scanning fluorimetry (DSF) thermal shift, KIND1
# Format: binding
# condition: 1 mM fragment, 2% DMSO
// note: answer is a bare numeric in °C

Study these solved cases before continuing.
>>> df
                     smilesrecord  recordednumber
0             Nc1ccnc2cc(Cl)ccc12            -0.4
1  Clc1ccc2c(NCCCN3CCOCC3)ccnc2c1            -0.5
2         OCCCNc1ccnc2cc(Cl)ccc12            -0.4

// moving on: another record for ΔTm at 1000 µM
// ΔTm at 1000 µM value for Clc1ccc2c(N3CCNCC3)ccnc2c1 : -1
